target_of_assay: hNLRP3 (Homo sapiens)
Construct: THP-1 cells were purchased from the American Type Culture Collection
experiment_description: IL-1β production in PMA-differentiated THP-1 cells stimulated with gramicidin (hTHP-1 assay)
measurement_conditions: read-out: NLRP3 Antagonist, hNLRP3 (THP-1, IL-1b) Normalized: GeoMean IC50
pIC50: −log10 of the molar value.
Please provide measured pIC50 for the entries that follow.

Past entries and their recorded results:
// pIC50 value for COC(=O)Cc1ccc2c(c1)S(=O)(=NC(=O)Nc1c3c(cc4c1CCC4)CCC3)NC2=O (stereo not drawn) : 4.52 to 5.30

So for CC(C)(O)c1ccc2c(c1)S(=O)(=NC(=O)Nc1c3c(cc4c1CCC4)CCC3)NC2=O (single isomer, unassigned) [Compound 127a] , the logged pIC50 turned out to be 6.70 to 7.40

Shift focus to the following entry.
Data point: O=C(N=S1(=O)CC(Cc2ccccc2)C(=O)N1)Nc1c2c(cc3c1CCC3)CCC2 (single isomer, unassigned) [Compound 249a] ; pIC50 = 6.00 to 6.70

----------
target_of_assay: hNLRP3 (Homo sapiens, UniProt Q96P20)
Construct: THP-1 cells were purchased from the American Type Culture Collection
Sequence (Q96P20 whole entry): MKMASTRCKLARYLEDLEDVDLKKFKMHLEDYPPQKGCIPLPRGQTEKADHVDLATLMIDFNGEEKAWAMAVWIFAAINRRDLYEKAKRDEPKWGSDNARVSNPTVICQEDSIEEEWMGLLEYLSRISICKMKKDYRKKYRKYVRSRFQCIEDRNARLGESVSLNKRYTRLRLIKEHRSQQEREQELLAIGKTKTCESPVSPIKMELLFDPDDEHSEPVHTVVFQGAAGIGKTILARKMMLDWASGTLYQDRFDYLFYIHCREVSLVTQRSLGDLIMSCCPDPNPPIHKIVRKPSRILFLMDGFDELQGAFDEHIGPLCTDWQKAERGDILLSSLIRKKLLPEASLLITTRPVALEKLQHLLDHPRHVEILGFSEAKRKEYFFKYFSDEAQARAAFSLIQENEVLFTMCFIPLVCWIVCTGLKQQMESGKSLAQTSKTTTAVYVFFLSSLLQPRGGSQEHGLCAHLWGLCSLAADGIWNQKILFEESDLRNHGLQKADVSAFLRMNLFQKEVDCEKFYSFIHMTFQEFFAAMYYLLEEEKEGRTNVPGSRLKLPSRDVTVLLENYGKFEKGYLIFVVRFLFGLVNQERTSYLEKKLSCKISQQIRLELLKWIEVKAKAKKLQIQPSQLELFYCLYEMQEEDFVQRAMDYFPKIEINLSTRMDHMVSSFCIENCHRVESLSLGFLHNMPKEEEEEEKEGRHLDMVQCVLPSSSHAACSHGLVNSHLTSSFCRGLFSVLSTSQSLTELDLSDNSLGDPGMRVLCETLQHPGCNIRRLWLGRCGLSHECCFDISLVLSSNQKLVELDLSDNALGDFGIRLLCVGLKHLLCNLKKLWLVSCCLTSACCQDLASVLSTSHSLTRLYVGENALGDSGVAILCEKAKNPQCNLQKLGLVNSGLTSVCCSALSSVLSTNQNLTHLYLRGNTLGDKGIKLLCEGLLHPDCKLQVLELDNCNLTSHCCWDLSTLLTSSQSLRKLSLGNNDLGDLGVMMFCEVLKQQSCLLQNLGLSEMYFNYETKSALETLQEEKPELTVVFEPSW
experiment_description: IL-1β production in PMA-differentiated THP-1 cells stimulated with gramicidin (hTHP-1 assay)
measurement_conditions: read-out: NLRP3 Antagonist, hNLRP3 (THP-1, IL-1b) Normalized: GeoMean IC50
pIC50: −log10 of the molar value.
endpoint_label: pIC50

Examples with their reported pIC50 follow.
pIC50 measured on CN(C)Cc1ccc2c(c1)S(=O)(=NC(=O)Nc1c3c(cc4c1CCC4)CCC3)NC2 (single isomer, unassigned) [Compound 133b] = < 4.52

// pIC50 lookup, compound = O=C(Nc1c2c(cc3c1CCC3)CCC2)NS1(=O)=NC(=O)c2ccc(Cl)cc21 (centres unmarked) , result: 4.52 to 5.30

The recorded pIC50 for O=C1CCS(=O)(=NC(=O)Nc2c3c(cc4c2CCC4)CCC3)N1 (single isomer, unassigned) [Compound 131a] is 5.30 to 6.00

compound CC(C)(O)c1ccc2c(c1)S(=O)(=NC(=O)Cc1cc3c(c4c1CCC4)CCC3)NC2=O (centres unmarked) , pIC50 observed: < 4.52

So, CC(C)(O)c1ccc2c(c1)S(=O)(=NC(=O)Nc1c3c(cc4c1CC4)CCC3)NC2=O (single isomer, unassigned) [Compound 112b] ? Its pIC50 was 5.30 to 6.00

Hey, quick one: what's pIC50 for each of these?
1. CN1Cc2ccccc2S1(=O)=NC(=O)Nc1c2c(cc3c1CCC3)CCC2 (single isomer, unassigned) [Compound 107a]
2. Cc1c(C2CC2)nc2c(c1NC(=O)N=S1(=O)NC(=O)c3ccc(C(C)(C)O)cc31)CCC2 (centres unmarked) [Compound 105]
3. Cc1c(C(F)(F)F)nc2c(c1NC(=O)N=S1(=O)NC(=O)c3ccc(C(C)(C)O)cc31)CCC2 (centres unmarked) [Compound 108]
4. CC(C)(O)c1ccc2c(c1)S(=O)(=NC(=O)Nc1c3c(nc4c1CCC4)CCC3)NC2=O (single isomer, unassigned) [Compound 136]
5. CC(C)(O)c1cc2c(s1)S(=O)(=NC(=O)Nc1c3c(cc4c1CCC4)CCC3)NC2=O (centres unmarked)
6. CC(C)(O)c1ccc2c(c1)S(=O)(=NC(=O)Cc1c3c(cc4c1CCC4)CCC3)NC2=O (centres unmarked) [Compound 115]

1. < 4.52
2. 6.00 to 6.70
3. 5.30 to 6.00
4. 6.00 to 6.70
5. 4.52 to 5.30
6. < 4.52
